Values were extracted from patent US10538495B2.

target: indoleamine 2,3-dioxygenase (IDO1) (Homo sapiens, UniProt P14902); assay: PBMC IDOi assay (kynurenine by mass spectrometry); format: cell-based; conditions: IFN-γ and LPS stimulated human PBMC, 2 days, kynurenine detected by mass spectrometry; read-out: PBMC pIC50 (converted)
Sequence (P14902 whole entry): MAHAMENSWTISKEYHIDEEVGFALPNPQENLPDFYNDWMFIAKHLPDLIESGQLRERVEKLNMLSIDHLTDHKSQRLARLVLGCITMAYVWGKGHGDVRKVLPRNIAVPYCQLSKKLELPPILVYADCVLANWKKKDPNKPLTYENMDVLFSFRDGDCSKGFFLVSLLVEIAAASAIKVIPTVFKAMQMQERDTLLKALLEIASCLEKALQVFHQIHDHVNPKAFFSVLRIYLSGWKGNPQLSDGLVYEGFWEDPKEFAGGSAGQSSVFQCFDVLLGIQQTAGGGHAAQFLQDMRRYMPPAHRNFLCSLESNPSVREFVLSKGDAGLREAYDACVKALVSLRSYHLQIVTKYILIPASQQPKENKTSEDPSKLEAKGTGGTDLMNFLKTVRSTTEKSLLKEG
MEASURE: IC50 (nM)
Numbers only, in nM.

>>> endpoint_result("Cc1ccc(CC(=O)Nc2cc(-c3ccccc3C(N)=O)ccc2SC(C)(C)C)cc1")
501
>>> endpoint_result("CC(C)c1ccc(CC(=O)Nc2cc(-c3ccccc3-c3nn[nH]n3)ccc2SC(C)(C)C)cc1")
3.16
>>> endpoint_result("Cc1cc(C)c(CC(=O)Nc2cc(-c3ccccc3-c3nn[nH]n3)ccc2SC(C)(C)C)c(C)c1")
1.58

Bench note, indoleamine 2,3-dioxygenase (IDO1) (Homo sapiens, UniProt P14902): entry Cc1ccc(CC(=O)Nc2cc(-c3ccccc3C(=O)O)ccc2SC(C)(C)C)cc1 , its IC50 = 794

---

For each record, write down the corresponding IC50.
target: indoleamine 2,3-dioxygenase (IDO1) (Homo sapiens, UniProt P14902); test: HeLa IDOi assay (kynurenine by mass spectrometry); type: cell-based; set-up: human epithelial HeLa cells (CCL-2; host or cells: HeLa cells stimulated with human IFN-γ; conditions: IFN-γ stimulated HeLa cells, 2 days, kynurenine detected by mass spectrometry; read-out: HeLa pIC50 (converted)
Give bare numbers, in µM.

>>> endpoint_result("CC(C)(C)Sc1ccc(-c2ccccc2-c2nn[nH]n2)cc1NC(=O)Cc1ccc(Br)cc1")
0.0316
>>> endpoint_result("Cc1ccc(CC(=O)Nc2cc(-c3ccccc3-c3nnnn3C)ccc2SC(C)(C)C)cc1")
0.501
>>> endpoint_result("Cc1ccc(CC(=O)Nc2cc(-c3ccccc3-c3nn[nH]n3)ccc2SC(C)(C)C)cc1F")
0.02
>>> endpoint_result("COCC(=O)Nc1cc(-c2ccccc2-c2nn[nH]n2)ccc1SC(C)(C)C")
7.94

The following compounds each have a reported value; give each one's IC50.
1. Cc1cccc(CC(=O)Nc2cc(-c3ccccc3-c3nn[nH]n3)ccc2SC(C)(C)C)c1
2. Cc1ccc(CC(=O)Nc2cc(-c3ccccc3-c3nnnn3COP(=O)(O)O)ccc2SC(C)(C)C)cc1
3. Cc1ccc(CC(=O)Nc2cc(-c3ccccc3-c3nnn(COC(=O)C(C)(C)C)n3)ccc2SC(C)(C)C)cc1
4. CC(C)(C)Sc1ccc(-c2ccccc2-c2nn[nH]n2)cc1NC(=O)c1ccccc1
5. CC(C)(C)Sc1ccc(-c2ccccc2-c2nn[nH]n2)cc1NC(=O)Cc1ccc(C#N)cc1

1: 0.0251; 2: 0.0251; 3: 0.0316; 4: 2.51; 5: 5.01

The following compounds each have a reported value; give each one's IC50.
1. COCCCSc1ccc(-c2ccccc2-c2nn[nH]n2)cc1NC(=O)Cc1ccc(C)cc1
2. COCn1nnc(-c2ccccc2-c2ccc(SC(C)(C)C)c(NC(=O)Cc3ccc(C)cc3)c2)n1
3. CC(C)(C)Sc1ccc(-c2ccccc2-c2nn[nH]n2)cc1Nc1nc(Cl)ns1
4. Cc1ccc(CC(=O)Nc2cc(-c3ccccc3-c3nn[nH]n3)ccc2S(=O)(=O)c2ccccc2)cc1
5. Cc1ccc(CC(=O)Nc2cc(-c3ccccc3C(N)=O)ccc2SC(C)(C)C)cc1
6. Cc1ccc(CC(=O)Nc2cc(-c3ccccc3-c3nn[nH]n3)ccc2SC(C)(C)C)nc1

1. 1
2. 0.398
3. 0.126
4. 2
5. 0.501
6. 0.794

The following compounds each have a reported value; give each one's IC50.
1. CC(CC(=O)O)c1ccc(SC(C)(C)C)c(Nc2nc(Cl)ns2)c1 (stereo not shown)
2. Cc1ccc(CC(=O)Nc2cc(-c3ccccc3-c3nnn(COP(=O)(O)O)n3)ccc2SC(C)(C)C)cc1
3. Cc1ccc(CC(=O)Nc2cc(-c3ccccc3-c3nnn(COP(=O)(OC(C)(C)C)OC(C)(C)C)n3)ccc2SC(C)(C)C)cc1
4. Cc1ccccc1CC(=O)Nc1cc(-c2ccccc2-c2nn[nH]n2)ccc1SC(C)(C)C

[2.51, 0.0158, 1, 0.0158]

The following compounds each have a reported value; give each one's IC50.
1. COc1ccc(CC(=O)Nc2cc(-c3ccccc3-c3nn[nH]n3)ccc2SC(C)(C)C)cc1F
2. Cc1ccc(CCC(=O)Nc2cc(-c3ccccc3-c3nn[nH]n3)ccc2SC(C)(C)C)cc1
3. CC(C)c1ccc(CC(=O)Nc2cc(-c3ccccc3-c3nn[nH]n3)ccc2SC(C)(C)C)cc1
4. Cc1ccc(CC(=O)Nc2cc(-c3ccccc3-c3nnn[nH]3)cnc2SC(C)(C)C)cc1
5. COCn1nnnc1-c1ccccc1-c1ccc(SC(C)(C)C)c(NC(=O)Cc2ccc(C)cc2)c1
6. CC(C)(C)Sc1ccc(-c2ccccc2-c2nn[nH]n2)cc1NC(=O)CC1CCCCC1

1: 0.0631; 2: 0.794; 3: 0.00398; 4: 0.0631; 5: 0.0631; 6: 3.98

The following compounds each have a reported value; give each one's IC50.
1. CC(C)(C)Sc1ccc(-c2ccccc2-c2nn[nH]n2)cc1NC(=O)Cc1ccccc1
2. CC(C)(C)Sc1ncc(-c2ccccc2-c2nnn[nH]2)cc1NC(=O)Cc1ccccc1C(F)(F)F
3. CC(=O)OCn1nnc(-c2ccccc2-c2ccc(SC(C)(C)C)c(NC(=O)Cc3ccc(C)cc3)c2)n1
4. CC(C)(C)Sc1ccc(-c2ccccc2-c2nn[nH]n2)cc1NC(=O)Cc1ccncc1

1: 0.398; 2: 0.1; 3: 0.0251; 4: 6.31

---

target: indoleamine 2,3-dioxygenase (IDO1) (Homo sapiens, UniProt P14902); assay: HeLa IDOi assay (kynurenine by mass spectrometry); format: cell-based; design: human epithelial HeLa cells (CCL-2; host or cells: HeLa cells stimulated with human IFN-γ; conditions: IFN-γ stimulated HeLa cells, 2 days, kynurenine detected by mass spectrometry; read-out: HeLa pIC50 (converted)
For each record, write down the corresponding log10(IC50).
Answers are given as log10 of IC50 in nM.

>>> endpoint_result("Cc1ccc(CC(=O)Nc2cc(-c3ccccc3C#N)ccc2SC(C)(C)C)cc1 [Example 46]")
3.80

The following compounds each have a reported value; give each one's log10(IC50).
1. CC(=O)OCn1nnnc1-c1ccccc1-c1ccc(SC(C)(C)C)c(NC(=O)Cc2ccc(C)cc2)c1 [Example 58]
2. Cc1ccc(CC(=O)Nc2cc(-c3ccccc3-c3nnnn3COC(=O)C(C)(C)C)ccc2SC(C)(C)C)cc1 [Example 56]
3. CC(C)(C)Sc1ccc(-c2ccccc2-c2nn[nH]n2)cc1NC(=O)Cc1ccc2c(c1)OCO2 [Example 38]
4. COc1ccc(CC(=O)Nc2cc(-c3ccccc3-c3nn[nH]n3)ccc2SC(C)(C)C)cc1 [Example 22]
5. Cc1cc(C)c(CC(=O)Nc2cc(-c3ccccc3-c3nn[nH]n3)ccc2SC(C)(C)C)c(C)c1 [Example 39]
6. CC(C)(C)Sc1ccc(-c2ccccc2-c2nn[nH]n2)cc1NC(=O)Cc1ccc(Cl)cc1 [Example 34]

1. 1.60
2. 1.50
3. 2.00
4. 1.50
5. 0.40
6. 1.90

---

target: indoleamine 2,3-dioxygenase (IDO1) (Homo sapiens, UniProt P14902); assay: PBMC IDOi assay (kynurenine by mass spectrometry); type: cell-based; details: IFN-γ and LPS stimulated human PBMC, 2 days, kynurenine detected by mass spectrometry; read-out: PBMC pIC50 (converted)
MEASURE: IC50 (nM)
Answers are plain numbers, in nM.

Solved cases below.
>>> endpoint_result("Cc1ccc(CCC(=O)Nc2cc(-c3ccccc3-c3nn[nH]n3)ccc2SC(C)(C)C)cc1")
251
>>> endpoint_result("Cc1ccc(CC(=O)Nc2cc(-c3ccccc3-c3nnn(COP(=O)(O)O)n3)ccc2SC(C)(C)C)cc1")
63.1
>>> endpoint_result("CC(C)(C)Sc1ccc(-c2ccccc2-c2nn[nH]n2)cc1Nc1nc(C(F)(F)F)ns1")
12.6
>>> endpoint_result("Cc1ccc(CC(=O)Nc2cc(-c3ccccc3-c3nnnn3COP(=O)(O)O)ccc2SC(C)(C)C)cc1")
158

The following molecules each have a reported value; give each one's IC50.
1. Cc1ccc(CC(=O)Nc2cc(-c3ccccc3-c3nn[nH]n3)ccc2S(=O)(=O)c2ccccc2)cc1
2. Cc1ccc(CC(=O)Nc2cc(-c3ccccc3-c3nnn(COC(=O)C(C)(C)C)n3)ccc2SC(C)(C)C)cc1
3. Cc1ccccc1CC(=O)Nc1cc(-c2ccccc2-c2nn[nH]n2)ccc1SC(C)(C)C

[2000, 50.1, 10]

Input CC(C)(C)Sc1ccc(-c2ccccc2-c2nn[nH]n2)cc1NC(=O)c1ccccc1 . Output IC50: 1260

---

For each record, write down the corresponding log10(IC50).
target: indoleamine 2,3-dioxygenase (IDO1) (Homo sapiens, UniProt P14902); assay: PBMC IDOi assay (kynurenine by mass spectrometry); type: cell-based; details: IFN-γ and LPS stimulated human PBMC, 2 days, kynurenine detected by mass spectrometry; read-out: PBMC pIC50 (converted)
Answers are given as log10 of IC50 in nM.

>>> endpoint_result("CC(C)(C)Sc1ncc(-c2ccccc2-c2nnn[nH]2)cc1NC(=O)Cc1ccccc1C(F)(F)F")
1.10
>>> endpoint_result("Cc1ccc(OC(=O)Nc2cc(-c3ccccc3-c3nn[nH]n3)ccc2SC(C)(C)C)cc1")
3.20
>>> endpoint_result("Cc1ccc(CC(=O)Nc2cc(-c3ccccc3-c3nnn[nH]3)cnc2SC(C)(C)C)c(C)c1")
0.90
>>> endpoint_result("CC(C)(C)Sc1ccc(-c2ccccc2-c2nn[nH]n2)cc1NC(=O)Cc1ccc(Cl)cc1")
1.40

The following compounds each have a reported value; give each one's log10(IC50).
1. Cc1ccc(CC(=O)Nc2cc(-c3ccccc3-c3nnn[nH]3)cnc2SC(C)(C)C)cc1
2. Cc1ccc(CC(=O)Nc2cc(C(C)CC(=O)O)ccc2SC(C)(C)C)cc1 (stereo not drawn)
3. Cc1ccc(CC(=O)Nc2cc(-c3ccccc3-c3nn[nH]n3)ccc2Sc2ccccc2)cc1
4. Cc1ccc(NC(=O)Nc2cc(-c3ccccc3-c3nn[nH]n3)ccc2SC(C)(C)C)cc1
5. Cc1cccc(CC(=O)Nc2cc(-c3ccccc3-c3nn[nH]n3)ccc2SC(C)(C)C)c1

1. 1.70
2. 3.60
3. 2.10
4. 1.90
5. 1.30
